Where do the numbers come from? From PubChem BioAssay (NCI).

# System: OVCAR-3 ovarian
# test.description: NCI tumour cell line growth inhibition, 48 h
Recorded TGI, one value per entry.

Below are worked cases with known answers.
O=C(Nc1nc(=S)[nH][nH]1)C(=O)C(c1cnc2ccc([N+](=O)[O-])cc2n1)[N+](=O)[O-] (centres undefined): > 100 µM
CCNC(=S)N/N=C(/C)c1cccc(/C(C)=N\NC(=S)NCC)n1: > 94 µM
CC(=O)c1c(-c2ccc(Cl)cc2)c(C#N)c(=S)n(C2OC(CO)C(O)C(O)C2O)c1C (centres undefined): > 100 µM
COc1ccc(N(CC(=O)O)N=O)cc1: > 100 µM
Cc1nnc(SCc2nc(C#N)c(C#N)nc2CSc2nnc(C)s2)s1: 20.7 µM

**Query** Which TGI reading was recorded for the compound "C/C(=N\NC(=S)NC(C)(C)C)c1nc2ncccc2[nH]1" ?
**Result** > 100 µM

**Query** Same again, this time with COC(=O)C(Cc1ccccc1)NC(=O)C(CNC(=O)OCc1ccccc1)C(=O)OCc1ccccc1 (centres undefined)
**Result** > 100 µM

**Query** And what about the compound "O=c1[nH]c2c(Nc3c4ccccc4nc4ccccc34)c([N+](=O)[O-])c(Nc3c4ccccc4nc4ccccc34)c([N+](=O)[O-])c2[nH]1" ?
**Result** 6.87 µM

**Query** Repeat for the following compound: "O=C1c2cccc3c(N4CCOCC4)ccc(c23)C(=O)N1CCN1CCN(CCCCCN2CCN(CCN3C(=O)c4cccc5c(N6CCOCC6)ccc(c45)C3=O)CC2)CC1"
**Result** > 100 µM

====

# Test system: U251 CNS
# test.description: NCI tumour cell line growth inhibition, 48 h
observable: TGI

CC(C)C(NCc1c2ccccc2[n+](C)c2ccccc12)C(=O)O (stereo unspecified): 18 µM
O=c1c2ccccc2nc(-c2cccc(Cl)c2)n1NC1OC(CO)C(O)C(O)C1O (stereo unspecified): > 100 µM
CC(C)(C)C1=NO[C@H]2[C@@H](NC(=O)c3ccccc3)CC[C@@H]12: > 100 µM

Attention now shifts to the item below.
**Query** Provide value of TGI for this record tested with U251 CNS: "N#Cc1cc(F)cc(Oc2ccc(S(=O)(=O)C(F)F)c3c2CC(F)(F)[C@H]3O)c1"
**Result** > 100 µM

====

# Lookup of reported log10 TGI keyed by entry
# Tested on: M19-MEL melanoma
# test.description: NCI tumour cell line growth inhibition, 48 h
Transform log10 | Measure TGI | Unit µM

Examples with answers:
C=C1C(=O)O[C@@H]2C[C@@]3(C)[C@H](O)CCC(=C)[C@@H]3C[C@H]12: 1.52
COCc1cc2c(s1)C(=O)C1=C(C2=O)C2(C=C(Br)C(=O)C(Br)=C2)CCN1: 0.44
O=[N+]([O-])c1cccnc1S(=O)(=O)c1ccccc1: 1.44
COc1ccc(/C=C/C(=O)c2c(-c3ccccc3)nn(C)c(=O)c2N2CCCCC2)cc1: 1.90

**Query** Param item = "C[n+]1cn(CC(=O)c2ccccc2)c(C(N)=O)c1N" ; retrieve measured log10 TGI.
**Result** 1.80

**Query** Let us now turn to "Cc1ccc(S(=O)(=O)Nc2ccccc2C(C)(C)C)cc1"
**Result** 1.92

**Query** Input N#CC(C(=O)Nc1ccccc1)C1=C(Cl)C(=O)c2ccccc2C1=O (stereo not given)
**Result** 1.34

**Query** Now give it for "Cc1ccc(-n2c3nc(=O)n(C)c(=O)c-3nc3ccccc32)c(C)c1" too.
**Result** 0.52
